Where do these numbers come from? They come from ChEMBL document CHEMBL1212832.

target: Fatty acid synthase (Plasmodium falciparum) (UniProt Q965D7); assay: Inhibition of Plasmodium falciparum recombinant FabZ at 20 ug/mL by spectrophotometric analysis
Active and inactive are the calls of the source. The calls are words filed in the database; no cut-off is given here.
Parameter: Activity

1. CC[C@@H](C(=O)C[C@@H](C)C1=C(O)C(=O)[C@@H]2[C@@H]3CC[C@H]4C[C@@H](O[C@@H]5O[C@H](C(=O)OC)[C@@H](O[C@H]6O[C@H](C)[C@@H](O)[C@H](O)[C@@H]6O)[C@H](O)[C@H]5O)CC[C@]4(C)[C@H]3CC[C@]12C)C(C)C [METHYL ESTER PANDAROSIDE I] ... inactive
2. CC(C)[C@@H](C)C(=O)C[C@@H](C)C1=C(O)C(=O)[C@@H]2C3=C(CC[C@]12C)[C@@]1(C)CC[C@H](O[C@@H]2O[C@H](C(=O)O)[C@@H](O)[C@H](O[C@@H]4OC[C@@H](O)[C@H](O)[C@H]4O)[C@H]2O)C[C@@H]1CC3 [PANDAROSIDE F] ... inactive
3. C=C(C(=O)C[C@@H](C)C1=C(O)C(=O)[C@@H]2C3=C(CC[C@]12C)[C@@]1(C)CC[C@H](O[C@@H]2O[C@H](C(=O)OC)[C@@H](O)[C@H](O[C@@H]4OC[C@@H](O)[C@H](O)[C@H]4O)[C@H]2O)C[C@@H]1CC3)C(C)C [METHYL ESTER PANDAROSIDE E] ... inactive

====

biological target: 3-oxoacyl-acyl-carrier protein reductase (Plasmodium falciparum); experiment: Inhibition of Plasmodium falciparum recombinant FabG at 20 ug/mL by spectrophotometric analysis
The source made the active and inactive calls. The calls are words filed in the database; no cut-off is given here.
Parameter: Activity

1) CC[C@@H](C(=O)C[C@@H](C)C1=C(O)C(=O)[C@@H]2[C@@H]3CC[C@H]4C[C@@H](O[C@@H]5O[C@H](C(=O)O)[C@@H](O)[C@H](O[C@@H]6OC[C@@H](O)[C@H](O)[C@H]6O)[C@H]5O)CC[C@]4(C)[C@H]3CC[C@]12C)C(C)C [PANDAROSIDE H] ... inactive
2) CC(C)CC(=O)C[C@@H](C)C1=C(O)C(=O)[C@@H]2[C@@H]3CC[C@H]4C[C@@H](O[C@@H]5O[C@H](C(=O)O)[C@@H](O)[C@H](O)[C@H]5O[C@@H]5O[C@H](CO)[C@@H](O)[C@H](O)[C@H]5O)CC[C@]4(C)[C@H]3CC[C@]12C [PANDAROSIDE C] ... inactive
3) CC[C@@H](C(=O)C[C@@H](C)C1=C(O)C(=O)[C@@H]2C3=CC[C@H]4C[C@@H](O[C@@H]5O[C@H](C(=O)OC)[C@@H](O)[C@H](O[C@@H]6OC[C@@H](O)[C@H](O)[C@H]6O)[C@H]5O)CC[C@]4(C)[C@H]3CC[C@]12C)C(C)C [METHYL ESTER PANDAROSIDE G] ... inactive

====

test: Inhibition of Plasmodium falciparum recombinant FabI at 20 ug/mL by spectrophotometric analysis
Active and inactive are the calls of the source. The calls are words filed in the database; no cut-off is given here.
Parameter: Activity

1. CC[C@@H](C(=O)C[C@@H](C)C1=C(O)C(=O)[C@@H]2[C@@H]3CC[C@H]4C[C@@H](O[C@@H]5O[C@H](C(=O)OC)[C@@H](O)[C@H](O[C@@H]6OC[C@@H](O)[C@H](O)[C@H]6O)[C@H]5O)CC[C@]4(C)[C@H]3CC[C@]12C)C(C)C [METHYL ESTER PANDAROSIDE H] ... inactive
2. CC[C@@H](C(=O)C[C@@H](C)C1=C(O)C(=O)[C@@H]2C3=CC[C@H]4C[C@@H](O[C@@H]5O[C@H](C(=O)OC)[C@@H](O)[C@H](O[C@@H]6OC[C@@H](O)[C@H](O)[C@H]6O)[C@H]5O)CC[C@]4(C)[C@H]3CC[C@]12C)C(C)C [METHYL ESTER PANDAROSIDE G] ... inactive
3. CC(C)CC(=O)C[C@@H](C)C1=C(O)C(=O)[C@@H]2[C@@H]3CC[C@H]4C[C@@H](O[C@@H]5O[C@H](C(=O)O)[C@@H](O)[C@H](O)[C@H]5O)CC[C@]4(C)[C@H]3CC[C@]12C [PANDAROSIDE D] ... inactive

====

tested on: Leishmania donovani; assay: Antileishmanial activity against Leishmania donovani (MHOM/ET/67/L82) amastigotes after 72 hrs; assay type: functional, organism-based; conditions: MHOM/ET/67/L82, 72 h
Measured IC50 values are reported for all entries that follow.
Parameter: IC50 (µM)

1) CC[C@@H](C(=O)C[C@@H](C)C1=C(O)C(=O)[C@@H]2[C@@H]3CC[C@H]4C[C@@H](O[C@@H]5O[C@H](C(=O)O)[C@@H](O)[C@H](O)[C@H]5O[C@@H]5O[C@H](CO)[C@@H](O)[C@H](O)[C@H]5O)CC[C@]4(C)[C@H]3CC[C@]12C)C(C)C [PANDAROSIDE A] ... 19.7
2) CC(C)CC(=O)C[C@@H](C)C1=C(O)C(=O)[C@@H]2[C@@H]3CC[C@H]4C[C@@H](O[C@@H]5O[C@H](C(=O)O)[C@@H](O)[C@H](O)[C@H]5O)CC[C@]4(C)[C@H]3CC[C@]12C [PANDAROSIDE D] ... 31

====

system: Leishmania donovani; test: Antileishmanial activity against Leishmania donovani (MHOM/ET/67/L82) amastigotes after 72 hrs; type: functional, organism-based; conditions: MHOM/ET/67/L82, 72 h
Parameter: IC50 (µM)

1) CC[C@@H](C(=O)C[C@@H](C)C1=C(O)C(=O)[C@@H]2[C@@H]3CC[C@H]4C[C@@H](O[C@@H]5O[C@H](C(=O)OC)[C@@H](O[C@H]6O[C@H](C)[C@@H](O)[C@H](O)[C@@H]6O)[C@H](O)[C@H]5O)CC[C@]4(C)[C@H]3CC[C@]12C)C(C)C [METHYL ESTER PANDAROSIDE I] ... 28.7
2) COC(=O)[C@H]1O[C@@H](O[C@H]2CC[C@@]3(C)[C@@H](CC[C@H]4[C@H]5C(=O)C(O)=C([C@H](C)CC(=O)CC(C)C)[C@@]5(C)CC[C@@H]43)C2)[C@H](O)[C@@H](O)[C@@H]1O [METHYL ESTER PANDAROSIDE D] ... 13.7
3) C=C(C(=O)C[C@@H](C)C1=C(O)C(=O)[C@@H]2C3=C(CC[C@]12C)[C@@]1(C)CC[C@H](O[C@@H]2O[C@H](C(=O)OC)[C@@H](O)[C@H](O[C@@H]4OC[C@@H](O)[C@H](O)[C@H]4O)[C@H]2O)C[C@@H]1CC3)C(C)C [METHYL ESTER PANDAROSIDE E] ... 41.3

====

test system: L6; assay: Cytotoxicity against rat L6 cells after 72 hrs by Alamar blue assay; assay type: cell-based; conditions: l6, 72 h
Parameter: Activity (µM)

1) CC[C@@H](C(=O)C[C@@H](C)C1=C(O)C(=O)[C@@H]2[C@@H]3CC[C@H]4C[C@@H](O[C@@H]5O[C@H](C(=O)OC)[C@@H](O[C@H]6O[C@H](C)[C@@H](O)[C@H](O)[C@@H]6O)[C@H](O)[C@H]5O)CC[C@]4(C)[C@H]3CC[C@]12C)C(C)C [METHYL ESTER PANDAROSIDE I] ... 59.6
2) CC[C@@H](C(=O)C[C@@H](C)C1=C(O)C(=O)[C@@H]2[C@@H]3CC[C@H]4C[C@@H](O[C@@H]5O[C@H](C(=O)OC)[C@@H](O)[C@H](O[C@@H]6OC[C@@H](O)[C@H](O)[C@H]6O)[C@H]5O)CC[C@]4(C)[C@H]3CC[C@]12C)C(C)C [METHYL ESTER PANDAROSIDE H] ... 43.3

====

Target: Fatty acid synthase (Plasmodium falciparum)
Sequence (whole entry): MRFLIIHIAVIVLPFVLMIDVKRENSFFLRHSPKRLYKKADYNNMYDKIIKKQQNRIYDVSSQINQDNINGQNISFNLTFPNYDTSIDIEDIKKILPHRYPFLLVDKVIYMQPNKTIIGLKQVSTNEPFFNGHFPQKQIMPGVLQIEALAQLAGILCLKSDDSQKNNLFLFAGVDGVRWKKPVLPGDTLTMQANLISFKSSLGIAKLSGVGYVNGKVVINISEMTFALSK
Test: Inhibition of Plasmodium falciparum recombinant FabZ at 20 ug/mL by spectrophotometric analysis
Activity calls are given as the source filed them. The rule behind the calls is not given here.
Parameter: Activity

1. CC[C@@H](C(=O)C[C@@H](C)C1=C(O)C(=O)[C@@H]2[C@@H]3CC[C@H]4C[C@@H](O[C@@H]5O[C@H](C(=O)O)[C@@H](O)[C@H](O[C@@H]6OC[C@@H](O)[C@H](O)[C@H]6O)[C@H]5O)CC[C@]4(C)[C@H]3CC[C@]12C)C(C)C [PANDAROSIDE H] ... inactive
2. CC[C@@H](C(=O)C[C@@H](C)C1=C(O)C(=O)[C@@H]2[C@@H]3CC[C@H]4C[C@@H](O[C@@H]5O[C@H](C(=O)OC)[C@@H](O)[C@H](O)[C@H]5O[C@@H]5O[C@H](CO)[C@@H](O)[C@H](O)[C@H]5O)CC[C@]4(C)[C@H]3CC[C@]12C)C(C)C [METHYL ESTER PANDAROSIDE A] ... inactive
3. C=C(C(=O)C[C@@H](C)C1=C(O)C(=O)[C@@H]2C3=C(CC[C@]12C)[C@@]1(C)CC[C@H](O[C@@H]2O[C@H](C(=O)O)[C@@H](O)[C@H](O[C@@H]4OC[C@@H](O)[C@H](O)[C@H]4O)[C@H]2O)C[C@@H]1CC3)C(C)C [PANDAROSIDE E] ... inactive
